Tested on: 415267-285-R-J2-PDC complex spheroid viability
procedure-summary: Anticancer human tumor 415267-285-R-J2-PDC patient-derived breast carcinoma cell line growth inhibition [POLQ]
settings: curve of first compound; second compound 0.0316 µM
recorded-metric: IC50 (nM)
Lab book: enter the figure in nM, no units written.

>>> observed_value("O=c1[nH]cc(F)c(=O)[nH]1 + COC1C(OC(N)=O)C(O)C(Oc2ccc3c(O)c(NC(=O)c4ccc(O)c(CC=C(C)C)c4)c(=O)oc3c2C)OC1(C)C")
194

Let us examine a further case.
Query string: May I ask what IC50 has been recorded for CC1COCCN1c1cc(-c2ccnn2C)c2ccnc(-c3ccn[nH]3)c2n1 (stereo not given) + Nc1ccc(C#CCN(C(=O)Cc2ncc(C(F)(F)F)cc2C(F)(F)F)c2ccc(F)cc2)nn1 ?
Result string: 42.7

====

System: 415267-285-R-J2-PDC complex spheroid viability
procedure-summary: Anticancer human tumor 415267-285-R-J2-PDC cell line growth inhibition [POLQ]; active = viability on the fitted dose curve at most 10% of control; inactive = the rest;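 note: spheroids exposed to compounds for one week before readout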
settings: second compound 0.316 µM; first compound 3.16 µM
Form entry, call: pick from Yes for active, No for inactive

Known results for compounds:
>>> class("CNCc1ccc(-c2[nH]c3cc(F)cc4c3c2CCNC4=O)cc1 + Nc1ccc(C#CCN(C(=O)Cc2ncc(C(F)(F)F)cc2C(F)(F)F)c2ccc(F)cc2)nn1")
"No"
>>> class("COc1cccc2c1C(=O)c1c(O)c3c(c(O)c1C2=O)CC(O)(C(=O)CO)CC3OC1CC(N)C(O)C(C)O1 (stereo not drawn) + Cc1cccc(N(C)C(=O)C2C(O)CCN2c2nc(C)cc(C(F)(F)F)c2C#N)c1")
"Yes"

Alright, here's another compound for you.
Query string: Test call for this compound, please: CC(C)n1c(=O)n(C)c2cnc3cc(F)c(-c4ccc(OCCCN5CCCCC5)nc4)cc3c21 + Nc1ccc(C#CCN(C(=O)Cc2ncc(C(F)(F)F)cc2C(F)(F)F)c2ccc(F)cc2)nn1
Result string: No

====

Tested on: 415267-285-R-J2-PDC complex spheroid viability
procedure-summary: Anticancer human tumor 415267-285-R-J2-PDC cell line growth inhibition [POLQ];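 note: spheroids exposed to compounds for one week before readout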
settings: curve of first compound; second compound 0.316 µM
Protocol: Multicellular complex tumor spheroid response to Polymerase (POL) inhibitors (novobiocin, ART-558, RP6685) in combination with a variety of drugs and investigational agents in selected tumor cell lines The POL inhibitors (novobiocin, ART-558, and RP6685) were evaluated both individually and in combination with standard of care and investigational anticancer small molecules within a complex spheroid model of solid tumors. . […]
pIC50: −log10 of the molar value.
recorded-metric: pIC50

>>> observed_value("Cn1ncnc1[C@H]1c2n[nH]c(=O)c3cc(F)cc(c23)N[C@@H]1c1ccc(F)cc1 + Nc1ccc(C#CCN(C(=O)Cc2ncc(C(F)(F)F)cc2C(F)(F)F)c2ccc(F)cc2)nn1")
"< 7.00"
>>> observed_value("CC1COCCN1c1cc(C2(O)CC3CCC(C2)O3)c2cnn(-c3ccn[nH]3)c2n1 (stereo not drawn) + COC1C(OC(N)=O)C(O)C(Oc2ccc3c(O)c(NC(=O)c4ccc(O)c(CC=C(C)C)c4)c(=O)oc3c2C)OC1(C)C")
"> 7.50"

Let us examine a further case.
Query string: May I ask what pIC50 has been recorded for C=CC(=O)N1CCN(c2nc(=O)n(-c3c(C)ccnc3C(C)C)c3nc(-c4c(O)cccc4F)c(F)cc23)C(C)C1 (stereo not drawn) + Nc1ccc(C#CCN(C(=O)Cc2ncc(C(F)(F)F)cc2C(F)(F)F)c2ccc(F)cc2)nn1 ?
Result string: < 5.00

====

Recorded measurements of pIC50, one per entry
Test system: 415267-285-R-J2-PDC complex spheroid viability
procedure-summary: Anticancer human tumor 415267-285-R-J2-PDC cell line growth inhibition [POLQ];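 note: spheroids exposed to compounds for one week before readout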
settings: curve of first compound; second compound 3.16 µM
pIC50: −log10 of the molar value.

>>> observed_value("C#Cc1c(F)ccc2cc(O)cc(-c3ncc4c(N5CC6CCC(C5)N6)nc(OCC56CCCN5CC(F)C6)nc4c3F)c12 (stereo not given) + Nc1ccc(C#CCN(C(=O)Cc2ncc(C(F)(F)F)cc2C(F)(F)F)c2ccc(F)cc2)nn1")
"< 5.00"

Query string: Lookup: pIC50 / 415267-285-R-J2-PDC complex spheroid viability / COc1cc2cc(C(=O)CCC(=O)O)sc2cc1OC + Cc1cccc(N(C)C(=O)C2C(O)CCN2c2nc(C)cc(C(F)(F)F)c2C#N)c1
Result string: < 5.00

Query string: Entry Nc1ccn(C2OC(CO)C(O)C2(F)F)c(=O)n1 (stereo not given) + COC1C(OC(N)=O)C(O)C(Oc2ccc3c(O)c(NC(=O)c4ccc(O)c(CC=C(C)C)c4)c(=O)oc3c2C)OC1(C)C please
Result string: > 7.50

Query string: Entry CC1COCCN1c1cc(-c2ccnn2C)c2ccnc(-c3ccn[nH]3)c2n1 (stereo not given) + Nc1ccc(C#CCN(C(=O)Cc2ncc(C(F)(F)F)cc2C(F)(F)F)c2ccc(F)cc2)nn1 please
Result string: 7.49

Query string: Entry CCCS(=O)(=O)Nc1ccc(F)c(C(=O)c2c[nH]c3ncc(-c4ccc(Cl)cc4)cc23)c1F + Nc1ccc(C#CCN(C(=O)Cc2ncc(C(F)(F)F)cc2C(F)(F)F)c2ccc(F)cc2)nn1 please
Result string: < 5.00

====

Recorded measurements of viability, T/C, one per entry
Tested on: 415267-285-R-J2-PDC complex spheroid viability
procedure-summary: Anticancer human tumor 415267-285-R-J2-PDC cell line growth inhibition [POLQ];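 note: spheroids exposed to compounds for one week before readout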;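 for viability, T/C: luminescence used as stand-in measure of viable cells; 100% = DMSO vehicle control viability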
settings: second compound 10 µM; first compound 0.0316 µM; stronger effect = lower value
Lab book: enter the figure in %, no units written.

Examples with answers:
>>> observed_value("CCc1cc2c(N3CCc4c(cc(Cn5ccnc5)cc4-c4cn(C)nc4C(F)(F)F)C3=O)cc(C)nc2c(OC)n1 + Cc1cccc(N(C)C(=O)C2C(O)CCN2c2nc(C)cc(C(F)(F)F)c2C#N)c1")
90.3
>>> observed_value("O=C(c1cc(Cc2n[nH]c(=O)c3ccccc23)ccc1F)N1CCN(C(=O)C2CC2)CC1 + Nc1ccc(C#CCN(C(=O)Cc2ncc(C(F)(F)F)cc2C(F)(F)F)c2ccc(F)cc2)nn1")
98.9
>>> observed_value("O=C(c1cc(Cc2n[nH]c(=O)c3ccccc23)ccc1F)N1CCN(C(=O)C2CC2)CC1 + Cc1cccc(N(C)C(=O)C2C(O)CCN2c2nc(C)cc(C(F)(F)F)c2C#N)c1")
100
>>> observed_value("COc1cccc(OCCCN)c1-c1cc(Nc2cnc(C#N)cn2)n[nH]1 + COC1C(OC(N)=O)C(O)C(Oc2ccc3c(O)c(NC(=O)c4ccc(O)c(CC=C(C)C)c4)c(=O)oc3c2C)OC1(C)C")
7.04

Let us examine a further case.
Query string: May I ask what viability, T/C has been recorded for COc1cc(C2c3cc4c(cc3C(OC3OC5COC(C)OC5C(O)C3O)C3COC(=O)C23)OCO4)cc(OC)c1O (stereo not given) + Nc1ccc(C#CCN(C(=O)Cc2ncc(C(F)(F)F)cc2C(F)(F)F)c2ccc(F)cc2)nn1 ?
Result string: 103

====

Tested on: 415267-285-R-J2-PDC complex spheroid viability
procedure-summary: Anticancer human tumor 415267-285-R-J2-PDC cell line growth inhibition [POLQ];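 note: spheroids exposed to compounds for one week before readout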;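 for viability, T/C: luminescence used as stand-in measure of viable cells; 100% = DMSO vehicle control viability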
settings: second compound 10 µM; first compound 0.0316 µM; stronger effect = lower value
Method: Multicellular complex tumor spheroid response to Polymerase (POL) inhibitors (novobiocin, ART-558, RP6685) in combination with a variety of drugs and investigational agents in selected tumor cell lines The POL inhibitors (novobiocin, ART-558, and RP6685) were evaluated both individually and in combination with standard of care and investigational anticancer small molecules within a complex spheroid model of solid tumors. . […]
recorded-metric: viability, T/C (%)
Lab book: enter the figure in %, no units written.

Examples with answers:
>>> observed_value("C#Cc1c(F)ccc2cc(O)cc(-c3ncc4c(N5CC6CCC(C5)N6)nc(OCC56CCCN5CC(F)C6)nc4c3F)c12 (stereo unspecified) + Nc1ccc(C#CCN(C(=O)Cc2ncc(C(F)(F)F)cc2C(F)(F)F)c2ccc(F)cc2)nn1")
97.7
>>> observed_value("O=c1[nH]cc(F)c(=O)[nH]1 + COC1C(OC(N)=O)C(O)C(Oc2ccc3c(O)c(NC(=O)c4ccc(O)c(CC=C(C)C)c4)c(=O)oc3c2C)OC1(C)C")
92
>>> observed_value("COc1cc2cc(C(=O)CCC(=O)O)sc2cc1OC + Cc1cccc(N(C)C(=O)C2C(O)CCN2c2nc(C)cc(C(F)(F)F)c2C#N)c1")
98.8
>>> observed_value("CC1COCCN1c1cc(-c2ccnn2C)c2ccnc(-c3ccn[nH]3)c2n1 (stereo unspecified) + Cc1cccc(N(C)C(=O)C2C(O)CCN2c2nc(C)cc(C(F)(F)F)c2C#N)c1")
53.4
>>> observed_value("Cn1ncnc1[C@H]1c2n[nH]c(=O)c3cc(F)cc(c23)N[C@@H]1c1ccc(F)cc1 + COC1C(OC(N)=O)C(O)C(Oc2ccc3c(O)c(NC(=O)c4ccc(O)c(CC=C(C)C)c4)c(=O)oc3c2C)OC1(C)C")
102
>>> observed_value("CNCc1ccc(-c2[nH]c3cc(F)cc4c3c2CCNC4=O)cc1 + Cc1cccc(N(C)C(=O)C2C(O)CCN2c2nc(C)cc(C(F)(F)F)c2C#N)c1")
98.4

Query string: May I ask what viability, T/C has been recorded for Nc1ccn(C2OC(CO)C(O)C2(F)F)c(=O)n1 (stereo unspecified) + COC1C(OC(N)=O)C(O)C(Oc2ccc3c(O)c(NC(=O)c4ccc(O)c(CC=C(C)C)c4)c(=O)oc3c2C)OC1(C)C ?
Result string: 24.7

The measurements presented in this section are drawn from PubChem BioAssay AID1963847.
